These data points were gathered from patent US20110124634A1.

- Test system: HT29
- Measurement description: MTS assay (cytotoxicity), growth inhibition of HT29
- Assay type: cell-based
- Experimental parameters: Homo sapiens, HT-29, 120 h, Table 5, series III, 5 days, read-out: Growth Inhibition (IC50) HT29
Recorded metric: IC50 (nM)
The reply should contain only the number, in nM.

Give the reported IC50 for this compound. COc1c(C)cnc(CN2C(=O)/C(=C\c3cc(C(=O)NCCN(CCO)CCO)c[nH]3)c3c(Cl)nc(N)nc32)c1C [III-30]
210

Give the reported IC50 for this compound. COc1c(C)cnc(CN2C(=O)/C(=C\c3ccc[nH]3)c3c(Cl)nc(N)nc32)c1C [III-1]
30

Give the reported IC50 for this compound. COc1c(C)cnc(CN2C(=O)/C(=C\c3cc(C(=O)NCC(O)CO)c[nH]3)c3c(Cl)nc(N)nc32)c1C (stereo not shown) [III-22]
360

Further cases:
Give the reported IC50 for this compound. COc1c(C)cnc(CN2C(=O)/C(=C\c3cc4c([nH]3)CCC=C4Cl)c3c(Cl)nc(N)nc32)c1C [III-7]
2010

Give the reported IC50 for this compound. COc1c(C)cnc(CN2C(=O)/C(=C\c3[nH]c(C)cc3C)c3c(Cl)nc(N)nc32)c1C [III-2]
1210

Give the reported IC50 for this compound. COc1c(C)cnc(CN2C(=O)/C(=C\c3cc(C(=O)CN4CCC(C(F)(F)F)CC4)c[nH]3)c3c(Cl)nc(N)nc32)c1C [III-94]
350

Give the reported IC50 for this compound. CCN(CC)CCNC(=O)c1c(C)[nH]c(/C=C2\C(=O)N(Cc3ncc(C)c(OC)c3C)c3nc(N)nc(Cl)c32)c1C [III-102]
30

Give the reported IC50 for this compound. COc1c(C)cnc(CN2C(=O)/C(=C\c3cc(C(C)(C)C)n[nH]3)c3c(Cl)nc(N)nc32)c1C [III-52]
240
